Numbers sourced from PubChem BioAssay AID1159580.

measurementDescription: chemical genetic growth profiling, strain panel (AID 1159580);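 note: tested at 20 µM; growth read once vehicle control cultures reached saturation at 30 °C; 1 = growth at the plate median or of vehicle wells; lower values mean less growth of the strain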
testContext: S. cerevisiae deletion strains, growth OD, locus YLL026W, active compounds read low
Among all 5,500 compounds or so, about 2,000 (36%) were called active. About 18% were inconclusive and are not listed. Some of the results follow.
Listing: normalized growth of selected compounds
measurementKind: normalized growth

| compound | resultNumber |
| --- | --- |
| CC(C)[C@@H]1CC[C@@H](C)C[C@H]1O | 1 |
| COc1ccc([C@H]2Oc3cc(OC)cc(OC)c3C[C@H]2O)cc1 | 1 |
| O=C1C=C2C=C[C@@H]3C[C@@]2(O1)[C@H]1CCCCN31 | 0.996 |
| O=C1[C@H](CCC(O)c2ccc(F)cc2)[C@@H](c2ccc(O)cc2)N1c1ccc(F)cc1 (stereo partly drawn) | 0.977 |
| COc1cc([C@@H]2c3cc4c(c(O)c3C[C@H]3COC(=O)[C@@H]32)OCO4)cc(OC)c1OC | 0.993 |
| CO/N=C(\C(=O)NC1C(=O)N2C(C(=O)OC(C)OC(C)=O)=C(COC(N)=O)CSC12)c1ccco1 (stereo not drawn) | 0.991 |
| CC[C@H](C)C(=O)O[C@H]1C[C@@H](C)C=C2C=C[C@H](C)[C@H](CC[C@@H]3C[C@@H](O)CC(=O)O3)[C@H]21 | 1.01 |
| N[C@@H](CC(=O)N1CCn2c(nnc2C(F)(F)F)C1)Cc1cc(F)c(F)cc1F | 0.995 |
| COC(=O)C(O)c1ccccc1 (stereo not drawn) | 0.991 |
| O=c1cc[nH]c(=S)[nH]1 | 0.999 |
| CO/N=C(\C(=O)NC1C(=O)N2C(C(=O)O)=C(COC(N)=O)CSC12)c1ccco1 (stereo not drawn) | 0.991 |
| CC(C)C(=O)Nc1ccc([N+](=O)[O-])c(C(F)(F)F)c1 | 1.02 |
| CO/N=C(\C(=O)N[C@@H]1C(=O)N2C(C(=O)O)=C(COC(C)=O)CS[C@H]12)c1csc(N)n1 | 0.996 |
| CC(C)NCC(O)c1cc(O)cc(O)c1 (stereo not drawn) | 0.999 |
| O=C(C1CCCCC1)N1CC(=O)N2CCc3ccccc3C2C1 (stereo not drawn) | 1.01 |
| COC(=O)C(C)c1ccc(C(=O)c2cccs2)cc1 (stereo not drawn) | 1.01 |
| C[N+]1(C)C2CC(OC(=O)[C@@H](CO)c3ccccc3)CC1C1OC12 (stereo partly drawn) | 0.985 |
| CC(C(=O)O)c1ccc(C(=O)c2cccs2)cc1 (stereo not drawn) | 0.99 |

----------
measurementDescription: chemical genetic growth profiling, strain panel (AID 1159580)
testContext: S. cerevisiae deletion strains, growth OD, locus YDL108W, strain KIN28
Screen size: about 5,500 compounds; about 2,000 (36%) were called active. Inconclusive results (about 18%) are left out. Cut-off read from the data, not from the text of the source: active = normalized growth mostly below about 0.91 (no sharp cut-off); inconclusive = no clear call, values can overlap the other calls; inactive = mostly above about 0.92. Some of the results follow.
Possible outcomes: active, inactive

| molecule | class |
| --- | --- |
| CC(=O)Nc1ccc(S(=O)(=O)Nc2ccccc2Oc2ccc(Cl)cc2Cl)cc1 | inactive |
| CC(C)(C)c1ccc(C(=O)NNc2c(Cl)cccc2Cl)cc1 | inactive |
| Cc1nc(-c2ccc(S(=O)(=O)Nc3ccc(Br)cc3Cl)s2)cs1 | inactive |
| OC(CN1CCN(c2nc3ccc(Cl)cc3s2)CC1)Cn1ccc2ccccc21 (stereo not drawn) | inactive |
| FC(F)(F)c1ccnc(N2CCCN(C(=S)Nc3ccc(Cl)cc3Cl)CC2)n1 | inactive |
| O=C(Nc1ccc(OC(F)(F)F)cc1)N1CCN(c2nc(-c3ccccc3)ns2)CC1 | inactive |
| CCCCN(C)C(=O)c1cc([N+](=O)[O-])cc2c1-c1ccc([N+](=O)[O-])cc1C2=C(C#N)C#N | inactive |
| CC(C)(CCC(C)(C)N1C(=O)c2cccc3cccc(c23)C1=O)N1C(=O)c2cccc3cccc(c23)C1=O | active |
| Cc1ccc(NNC(=O)c2c(C)noc2C)cc1Cl | inactive |
| Cc1onc(-c2c(F)cccc2Cl)c1C(=O)NNc1cc(Cl)cc(Cl)c1 | inactive |
| Cc1cccc(NC(=S)NNC(=O)CSCc2cccc3ccccc23)c1 | inactive |
| Cc1ccc(NS(=O)(=O)c2ccc(Cl)cc2)c(N=Cc2cc(Cl)cc(Cl)c2O)c1 | inactive |
| Cc1onc(-c2c(Cl)cccc2Cl)c1C(=O)NC(C)(C)CC(C)(C)C | inactive |
| Cc1ccc(NS(=O)(=O)c2ccc(-c3csc(C)n3)s2)c(C)c1 | inactive |
| Cc1onc(-c2c(Cl)cccc2Cl)c1C(=O)NNc1c(Cl)cccc1Cl | inactive |
| CCCCCCCCCCCC(=O)NOC(=O)c1c(-c2c(Cl)cccc2Cl)noc1C | inactive |
| Cc1onc(-c2c(F)cccc2Cl)c1C(=O)ON=C1C2CC3CC(C2)CC1C3 | active |
| CC(C)(C)c1ccc(C(=O)Nc2ccc(C(F)(F)F)cc2)s1 | inactive |

----------
measurementDescription: chemical genetic growth profiling, strain panel (AID 1159580)
testContext: S. cerevisiae deletion strains, growth OD, locus YBR231C, strain swc5, active compounds read low
Hit rate of the full screen: of about 5,500 compounds, about 2,000 (36%) were called active. Roughly 18% stayed inconclusive and do not appear here. The list shows a part of the results.
Reported normalized growth is given for each of the following molecules.

| molecule | normalized growth |
| --- | --- |
| Clc1cccc(Cl)c1NC1=NCCN1 | 0.998 |
| Cc1ccc(C)c(OCCCC(C)(C)C(=O)O)c1 | 0.986 |
| Nc1ccc(N=Nc2ccccc2)c(N)n1 | 0.742 |
| O=C1NC(=O)C(=O)C(=O)N1 | 0.986 |
| Cn1c(=O)c2[nH]cnc2n(C)c1=O | 1.02 |
| COc1ccc2c(c1)O[C@H]1c3ccc(OC)cc3OC[C@@H]21 | 1.01 |
| COc1ccc2c(c1OC)C(=O)OC2[C@H]1c2c(cc3c(c2OC)OCO3)CCN1C (stereo partly drawn) | 1.01 |
| CC1(C)NC(=O)N(c2ccc([N+](=O)[O-])c(C(F)(F)F)c2)C1=O | 0.989 |
| COc1c2ccoc2c(OC)c2oc(=O)ccc12 | 0.966 |
| Cc1cccc(C)c1NC1=NCCCS1 | 0.997 |
| COc1ccc([C@H]2Oc3cc(OC)cc(OC)c3C[C@H]2O)cc1 | 1.01 |
| NC(=O)c1cccc(N)c1 | 0.967 |
| O=c1cc[nH]c(=S)[nH]1 | 1.02 |

----------
normalized growth for assorted molecules
measurementDescription: chemical genetic growth profiling, strain panel (AID 1159580);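 note: tested at 20 µM; growth read once vehicle control cultures reached saturation at 30 °C; 1 = growth at the plate median or of vehicle wells; lower values mean less growth of the strain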
testContext: S. cerevisiae deletion strains, growth OD, locus YFR028C, strain CDC14, active compounds read low
Out of some 5,500 compounds screened, about 2,000 (36%) were called active. Roughly 18% stayed inconclusive and do not appear here. The list shows a part of the results.

| molecule | normalized growth |
| --- | --- |
| OC(CN1CCN(c2nc3ccc(Cl)cc3s2)CC1)Cn1ccc2ccccc21 (centres undefined) | 0.995 |
| CC(C)(C)c1ccc(C(=O)Nc2ccc(C(F)(F)F)cc2)s1 | 0.985 |
| Cc1ccc(NS(=O)(=O)c2ccc(-c3csc(C)n3)s2)c(C)c1 | 0.981 |
| Cc1nc(-c2ccc(S(=O)(=O)Nc3ccc(Br)cc3Cl)s2)cs1 | 0.952 |

----------
measurementDescription: chemical genetic growth profiling, strain panel (AID 1159580);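 note: tested at 20 µM; growth read once vehicle control cultures reached saturation at 30 °C; 1 = growth at the plate median or of vehicle wells; lower values mean less growth of the strain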
testContext: S. cerevisiae deletion strains, growth OD, locus YOR184W, strain ser1, active compounds read low
Hit rate of the full screen: of about 5,500 compounds, about 2,000 (36%) were called active. About 18% were inconclusive and are not listed. Some of the results follow.
Quick reference for normalized growth among some compounds
measurementKind: normalized growth

| compound | result |
| --- | --- |
| CO/N=C(\C(=O)N[C@@H]1C(=O)N2C(C(=O)O)=C(COC(C)=O)CS[C@H]12)c1csc(N)n1 | 0.986 (inactive) |
| NC(=O)c1cccc(N)c1 | 1 (inactive) |
| Nc1ccn(C2O[C@H](CO)[C@@H](O)[C@@H]2O)c(=O)n1 (stereo not given in full) | 0.997 (inactive) |
| CO/N=C(\C(=O)NC1C(=O)N2C(C(=O)O)=C(COC(N)=O)CSC12)c1ccco1 (stereo not given) | 0.062 (active) |
| CO/N=C(\C(=O)N[C@@H]1C(=O)N2C(C(=O)O)=C(CSc3nc(=O)c(O)nn3C)CS[C@H]12)c1csc(N)n1 | 0.974 (inactive) |

----------
measurementDescription: chemical genetic growth profiling, strain panel (AID 1159580);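 note: tested at 20 µM; growth read once vehicle control cultures reached saturation at 30 °C; 1 = growth at the plate median or of vehicle wells; lower values mean less growth of the strain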
testContext: S. cerevisiae deletion strains, growth OD, locus YOR329C, strain SCD5, active compounds read low
The whole screen tested about 5,500 compounds, of which about 2,000 (36%) were called active. Another 18% or so got no clear call; they are omitted. The list shows a part of the results.
Each entry below lists one item and its recorded normalized growth value.
measurementKind: normalized growth

| smilesText | resultNumber |
| --- | --- |
| FC(F)(F)c1ccnc(N2CCCN(C(=S)Nc3ccc(Cl)cc3Cl)CC2)n1 | 0.973 |
| CC(C)(C)c1ccc(C(=O)Nc2ccc(C(F)(F)F)cc2)s1 | 0.999 |
| Cc1ccc(NS(=O)(=O)c2ccc(Cl)cc2)c(N=Cc2cc(Cl)cc(Cl)c2O)c1 | 0.96 |
| CCc1ccn2cc(Nc3ccccc3Cl)nc2c1 | 0.972 |
